System: H9c2
test.summary: Cardioprotective activity against CoCl2-induced cellular hypoxia injury in rat H9c2 cells assessed as cell viability at 2.5 uM incubated for 24 hrs by CCK-8 assay (reference value: 51.80 +/- 2.58 %)
Type: functional
measurement.setup: read-out: Activity
Reported viability at 2.5 µM values for the following molecules.
outcome.measure: viability at 2.5 µM (%)

CC(C)(O)[C@H]1CC[C@@](C)([C@H]2CC[C@]3(C)[C@@H]2[C@H](O)C[C@@H]2[C@@]4(C)CC[C@H](OC(=O)c5ccc(N=C=S)cc5)C(C)(C)[C@@H]4[C@@H](O)C[C@]23C)O1 | 57.1
CC(C)=CCC[C@](C)(O)[C@H]1CC[C@]2(C)[C@@H]1[C@H](O)C[C@@H]1[C@@]3(C)CC[C@H](O)C(C)(C)[C@@H]3CC[C@]12C | 67.5
C=CCSSCCC(=O)O | 68.4
CC(C)(O)[C@H]1CC[C@@](C)([C@H]2CC[C@]3(C)[C@@H]2[C@H](O)C[C@@H]2[C@@]4(C)CC[C@H](O)C(C)(C)[C@@H]4[C@@H](O)C[C@]23C)O1 | 57
C=CCSSCCC(=O)O[C@H]1CC[C@]2(C)[C@H]3C[C@@H](O)[C@@H]4[C@@H]([C@]5(C)CC[C@@H](C(C)(C)O)O5)CC[C@@]4(C)[C@]3(C)CC[C@H]2C1(C)C | 87.8
C=CCSSCCC(=O)O[C@H]1CC[C@]2(C)[C@H]3C[C@@H](O)[C@@H]4[C@@H]([C@]5(C)CC[C@@H](C(C)(C)O)O5)CC[C@@]4(C)[C@]3(C)C[C@H](O)[C@H]2C1(C)C | 79.1
C=CCSSCCC(=O)O[C@H]1CC[C@]2(C)[C@H]3C[C@@H](O)[C@@H]4[C@@H]([C@@](C)(O)CCC=C(C)C)CC[C@@]4(C)[C@]3(C)CC[C@H]2C1(C)C | 42.5
CC(C)(O)[C@@H]1CC[C@@](C)([C@H]2CC[C@]3(C)[C@@H]2[C@H](O)C[C@@H]2[C@@]4(C)CC[C@H](OC(=O)CCC(=O)Oc5ccc(-c6cc(=S)ss6)cc5)C(C)(C)[C@@H]4CC[C@]23C)O1 | 79.6
CC(C)=CCC[C@](C)(O)[C@H]1CC[C@]2(C)[C@@H]1[C@H](O)C[C@@H]1[C@@]3(C)CC[C@H](OC(=O)c4ccc(N=C=S)cc4)C(C)(C)[C@@H]3CC[C@]12C | 60.7
CC(C)(O)[C@@H]1CC[C@@](C)([C@H]2CC[C@]3(C)[C@@H]2[C@H](O)C[C@@H]2[C@@]4(C)CC[C@H](O)C(C)(C)[C@@H]4CC[C@]23C)O1 | 74.8
CC(C)(O)[C@@H]1CC[C@@](C)([C@H]2CC[C@]3(C)[C@@H]2[C@H](O)C[C@@H]2[C@@]4(C)CC[C@H](OC(=O)c5ccc(N=C=S)cc5)C(C)(C)[C@@H]4CC[C@]23C)O1 | 67.1

====

Test system: H9c2
test.summary: Cardioprotective activity against CoCl2-induced cellular hypoxia injury in rat H9c2 cells assessed as cell viability at 2.5 uM incubated for 24 hrs by CCK-8 assay (reference value: 51.80 +/- 2.58 %)
Assay type: functional
measurement.setup: read-out: Activity
Reported viability at 2.5 µM values for the following compounds.
outcome.measure: viability at 2.5 µM (%)

CC(C)(O)[C@H]1CC[C@@](C)([C@H]2CC[C@]3(C)[C@@H]2[C@H](O)C[C@@H]2[C@@]4(C)CC[C@H](OC(=O)CCC(=O)Oc5ccc(-c6cc(=S)ss6)cc5)C(C)(C)[C@@H]4CC[C@]23C)O1 | 67.5
CC(C)(O)[C@@H]1CC[C@@](C)([C@H]2CC[C@]3(C)[C@@H]2[C@H](O)C[C@@H]2[C@@]4(C)CC[C@H](O)C(C)(C)[C@@H]4[C@@H](O)C[C@]23C)O1 [PROTOPANAXATRIOL OXIDE II] | 56.7
